System tested: ACC2 (Homo sapiens)
Sequence (O00763 whole entry, species assumed): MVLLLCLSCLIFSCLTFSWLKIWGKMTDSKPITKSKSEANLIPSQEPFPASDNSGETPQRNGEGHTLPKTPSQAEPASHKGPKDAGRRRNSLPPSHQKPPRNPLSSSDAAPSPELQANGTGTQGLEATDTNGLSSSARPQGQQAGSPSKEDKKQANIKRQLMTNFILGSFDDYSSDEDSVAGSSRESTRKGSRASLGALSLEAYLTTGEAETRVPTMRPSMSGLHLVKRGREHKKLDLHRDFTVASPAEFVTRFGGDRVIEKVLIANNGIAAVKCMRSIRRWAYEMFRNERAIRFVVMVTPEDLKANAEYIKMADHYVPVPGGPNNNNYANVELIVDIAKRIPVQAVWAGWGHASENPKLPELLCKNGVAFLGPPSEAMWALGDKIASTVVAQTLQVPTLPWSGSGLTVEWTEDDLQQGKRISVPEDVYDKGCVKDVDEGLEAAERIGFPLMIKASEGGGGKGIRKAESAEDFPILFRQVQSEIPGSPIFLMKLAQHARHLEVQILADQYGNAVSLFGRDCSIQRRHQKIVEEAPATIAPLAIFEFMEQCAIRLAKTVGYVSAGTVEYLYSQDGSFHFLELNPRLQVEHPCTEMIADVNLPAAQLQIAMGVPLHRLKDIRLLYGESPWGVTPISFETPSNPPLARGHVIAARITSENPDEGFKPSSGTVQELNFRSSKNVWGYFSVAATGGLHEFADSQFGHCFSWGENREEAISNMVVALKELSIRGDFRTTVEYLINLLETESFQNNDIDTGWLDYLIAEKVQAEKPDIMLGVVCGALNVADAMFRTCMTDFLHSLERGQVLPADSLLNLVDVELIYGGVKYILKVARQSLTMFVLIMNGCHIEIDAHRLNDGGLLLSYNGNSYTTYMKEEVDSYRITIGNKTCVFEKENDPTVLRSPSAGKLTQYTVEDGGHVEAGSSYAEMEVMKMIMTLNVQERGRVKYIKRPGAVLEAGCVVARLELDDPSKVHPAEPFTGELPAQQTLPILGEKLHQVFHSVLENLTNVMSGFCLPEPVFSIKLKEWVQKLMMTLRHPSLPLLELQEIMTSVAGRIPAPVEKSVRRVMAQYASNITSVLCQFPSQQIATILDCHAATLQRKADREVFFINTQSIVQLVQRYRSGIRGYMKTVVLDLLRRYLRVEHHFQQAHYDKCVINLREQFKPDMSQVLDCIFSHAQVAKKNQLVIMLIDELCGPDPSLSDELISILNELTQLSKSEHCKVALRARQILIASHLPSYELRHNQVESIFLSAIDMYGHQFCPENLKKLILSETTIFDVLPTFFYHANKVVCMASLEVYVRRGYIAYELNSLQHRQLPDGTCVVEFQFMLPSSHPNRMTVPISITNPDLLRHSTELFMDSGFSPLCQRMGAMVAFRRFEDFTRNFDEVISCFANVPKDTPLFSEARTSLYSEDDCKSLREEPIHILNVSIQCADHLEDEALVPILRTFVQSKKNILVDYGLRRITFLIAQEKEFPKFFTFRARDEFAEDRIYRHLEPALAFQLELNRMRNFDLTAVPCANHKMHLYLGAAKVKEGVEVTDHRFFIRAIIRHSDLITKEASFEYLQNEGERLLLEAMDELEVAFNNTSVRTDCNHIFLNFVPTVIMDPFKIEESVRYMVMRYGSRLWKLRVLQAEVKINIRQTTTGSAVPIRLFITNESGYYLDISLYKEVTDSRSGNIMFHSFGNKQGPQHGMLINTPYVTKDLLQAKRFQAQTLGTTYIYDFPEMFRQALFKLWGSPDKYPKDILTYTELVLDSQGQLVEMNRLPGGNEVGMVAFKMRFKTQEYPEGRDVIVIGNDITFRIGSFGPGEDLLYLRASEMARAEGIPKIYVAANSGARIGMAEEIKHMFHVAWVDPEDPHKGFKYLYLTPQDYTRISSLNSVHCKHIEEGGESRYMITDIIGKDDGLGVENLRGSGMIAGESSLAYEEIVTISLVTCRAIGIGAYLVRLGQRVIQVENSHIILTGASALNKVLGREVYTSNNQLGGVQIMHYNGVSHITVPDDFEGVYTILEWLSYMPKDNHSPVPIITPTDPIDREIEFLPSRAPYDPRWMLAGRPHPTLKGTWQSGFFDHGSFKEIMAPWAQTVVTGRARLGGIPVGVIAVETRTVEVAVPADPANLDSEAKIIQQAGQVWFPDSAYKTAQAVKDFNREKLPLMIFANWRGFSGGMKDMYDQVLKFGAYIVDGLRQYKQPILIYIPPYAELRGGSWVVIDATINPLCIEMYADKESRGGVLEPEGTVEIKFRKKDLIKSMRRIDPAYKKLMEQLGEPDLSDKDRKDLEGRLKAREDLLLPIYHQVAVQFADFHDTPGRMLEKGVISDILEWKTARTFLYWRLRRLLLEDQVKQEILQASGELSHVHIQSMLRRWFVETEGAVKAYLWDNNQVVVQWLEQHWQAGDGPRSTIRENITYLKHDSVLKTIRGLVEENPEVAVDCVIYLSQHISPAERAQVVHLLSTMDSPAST
Method summary: In vitro ACC2 inhibition assay (ADP-Glo)
Format: biochemical
Reported conditions: read-out: ACC2
pIC50: −log10 of the molar value.

[
  {
    "Molecule": "Cc1c(-c2ncco2)sc2c1c(=O)n(C(C)(C)C(=O)O)c(=O)n2C[C@H](Oc1ccc(F)cc1)c1ccccc1",
    "pIC50": "> 6.00"
  },
  {
    "Molecule": "Cc1c(-c2ncco2)sc2c1c(=O)n(C(C)(C)C(=O)O)c(=O)n2C[C@H](OC1CCOCC1)c1ccccc1COC(C)C",
    "pIC50": "> 7.00"
  },
  {
    "Molecule": "Cc1c(C(=O)O)sc2c1c(=O)n(CCO)c(=O)n2CCc1ccccc1",
    "pIC50": "< 4.30"
  },
  {
    "Molecule": "Cc1c(-c2ncco2)sc2c1c(=O)n(C(C)(C)C(=O)O)c(=O)n2C[C@H](O[C@H]1CCCC[C@@H]1C)c1ccccc1",
    "pIC50": "> 6.00"
  },
  {
    "Molecule": "CCOC(=O)c1sc2c(c1C)c(=O)n(C(C)(C)C(N)=O)c(=O)n2C[C@@H](OC(C)C)c1ccccc1",
    "pIC50": "4.30 to 4.70"
  },
  {
    "Molecule": "COc1ccccc1[C@H](Cn1c(=O)n(C(C)(C)C(=O)N2CCC2)c(=O)c2c(C)c(-c3ncco3)sc21)OC1CCOCC1",
    "pIC50": "> 7.00"
  },
  {
    "Molecule": "CCOC(=O)c1sc2c(c1C)c(=O)n(CC(=O)O)c(=O)n2CC(OC(C)C)c1ccccc1 (stereo in doubt) [I-97]",
    "pIC50": "> 6.00"
  }
]
